Reported IC50 against Cytochrome P450 2C9 (Homo sapiens), gathered from multiple publications, appears below.
Assay Metric: IC50 (µM)

Value lookup for IC50; key = `O=c1cc(-c2ccccc2)oc2cc(O)cc(O)c12`
5.23

Repeat with `O=C(Cn1c(CCc2cccc(F)c2F)nc(=O)c2ccccc21)N(Cc1ccc(-c2ccc(C(F)(F)F)cc2)cc1)C1CCN(c2ccncn2)CC1`
0.0794

Try the compound `Cc1ccoc1C(=O)Nc1ccc(N2C(=O)c3cccc(F)c3C2=O)c(Cl)c1`
6.45

Likewise for `CC(C)COc1ccc(-c2cn(C)c3cc(C(=O)NS(C)(=O)=O)c(F)cc23)cn1` ?
27

Now consider `O=C(NOCCO)c1cc(F)c2cncn2c1Nc1ccc(I)cc1F` and answer again.
1.2

// same read-out, input: `C[C@@H]1COCCN1c1nc(-c2cccc3[nH]ccc23)nc2c1CN(C(=O)c1cccc(S(C)(=O)=O)c1)C2(C)C`
10

P. Cc1nc(S(C)(=O)=O)ccc1Nc1ncnc(OC2CCN(C(=O)OC(C)C)CC2)c1F
Q. Cc1cc(C2=NC(C)CN2)cc2[nH]c(-c3c(NCC(O)c4cccc(Cl)c4)cc[nH]c3=O)nc12 (configuration not stated)
R. COC(=O)C1=C(Cn2ccnc2)NC(C)=C(C#N)C1c1ccc(F)cc1Cl (configuration not stated)
S. O=C(Cn1c(CCc2cccc(F)c2F)nc(=O)c2cccnc21)N(Cc1ccc(-c2ccc(C(F)(F)F)cc2)cc1)C1CCNCC1
T. COc1ccnc(CCc2nc3ncccc3[nH]2)c1
Ordering: ascending IC50. Please reply with the labels ordered as requested. Many thanks.
R, T, P, S, Q
(R: 1 µM, T: 3.16 µM, P: 5.5 µM, S: 20 µM, Q: 67 µM)

A. NC(=O)C(Nc1c(Nc2ccncc2)c(=O)c1=O)c1ccccc1 (configuration not stated)
B. Cc1c(CC(C)C(=O)Nc2ccccc2C(=O)O)cnn1-c1ccc(O)cc1 (configuration not stated)
Between the two listed entries A and B , which has its IC50 at the higher number? Lab log: write the label of the selected item as the result.
B
(B: 22 µM, A: 5.1 µM)

1. Nc1noc2ccc(-c3cc(Cl)ccc3Oc3cc(F)c(S(=O)(=O)Nc4ncns4)cc3F)cc12
2. CN(c1ncnc2cc(-c3ccc(S(C)(=O)=O)cc3F)sc12)C1CCN(C(=O)OC(C)(C)C)CC1
Just curious, which one has the larger IC50 reading, 1 or 2 ? Field: selected label. Fill in the label of the entry you choose.
2
